targetEntity: αIIb (INTEGRIN, ALPHA 2B; PLATELET GLYCOPROTEIN IIB OF IIB/IIIA COMPLEX, ANTIGEN CD41) (human) (UniProt P08514)
experimentNotes: αIIb complexes captured, mass spectrometry; No. Expts 1
readout: #Peptides (peptides)

substance	#Peptides, peptides
HEAT SHOCK 70 kDa PROTEIN 9B (MORTALIN-2) (from UniProt P38646 47-679)	11
HEAT SHOCK 70 kDa PROTEIN 1B (from UniProt P0DMV9 2-641)	15
ALDO-KETO REDUCTASE FAMILY 7, MEMBER A2 (AFLATOXIN ALDEHYDE REDUCTASE) (from UniProt O43488 39-359)	19
CARS2 (HYPOTHETICAL PROTEIN FLJ12118) (from UniProt Q9HA77 1-564)	9

1: NUDIX (NUCLEOSIDE DIPHOSPHATE LINKED MOIETY X)-TYPE MOTIF 19 (from UniProt A8MXV4 1-375)
2: HEAT SHOCK 70 kDa PROTEIN 1A (from UniProt P0DMV8 2-641)
3: SIN3A-ASSOCIATED PROTEIN, 130 kDa (from UniProt Q9H0E3 1-1048)
4: SEC23 HOMOLOG A (S. …) (from UniProt Q15436 2-765)
Incoming: Task for the reader: rank each entry by its #Peptides, from the minimum upward. Response format: the labels, sorted as the prompt asks.
Outgoing: 4, 3, 1, 2
